B1: PCDHGA10 (parent)
chain: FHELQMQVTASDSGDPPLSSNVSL

- Variants of: B1
- assay method text: protein stability index of a GFP-peptide fusion (GPS, HEK-293T) (PSI 1-6); higher = more stable;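 further: lentivirally expressed fusions sorted by FACS into six bins by GFP to DsRed ratio, PSI derived from sequencing read proportions per bin multiplied by bin number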
- test parameters: c terminus: a fixed tail appended
# protein stability index >= 2 gives True, anything below gives False

Known results for variants:
* F1K | True
* T9G | True
* Q5C | False

Qu. Confirm if protein stability index reported for the variant `T9I` is 2 or above.
Ans. True

Qu. Confirm if protein stability index reported for the variant `L18I` is 2 or above.
Ans. True

Qu. Confirm if protein stability index reported for the variant `L24V` is 2 or above.
Ans. True

Qu. Confirm if protein stability index reported for the variant `N21G` is 2 or above.
Ans. True

Qu. Confirm if protein stability index reported for the variant `P17K` is 2 or above.
Ans. True

Qu. Confirm if protein stability index reported for the variant `E3N` is 2 or above.
Ans. False

Qu. Confirm if protein stability index reported for the variant `G14Q` is 2 or above.
Ans. False

Qu. Confirm if protein stability index reported for the variant `L18P` is 2 or above.
Ans. True

Qu. Confirm if protein stability index reported for the variant `T9R` is 2 or above.
Ans. True

Qu. Confirm if protein stability index reported for the variant `S23R` is 2 or above.
Ans. True

Qu. Confirm if protein stability index reported for the variant `E3I` is 2 or above.
Ans. True

Hello, the source for this data is the supplement of paper PMC10567573, in case you need it.
